The following binders are listed with their measured glycan array binding signal (z-score) values.
molecular target: Gal(b1-4)GlcNAc(b1-3)[Gal(b1-4)GlcNAc(b1-6)]Gal(b1-4)GlcNAc; experiment: glycan array binding signal (z-score within array); higher = stronger binding; conditions: glycan notation: IUPAC condensed, linker removed
This excerpt belongs to a sample that is enriched for the strongest signals.

binder	glycan array binding signal (z-score)
Galatrox (Botrops atrox), P0DM53 (protein) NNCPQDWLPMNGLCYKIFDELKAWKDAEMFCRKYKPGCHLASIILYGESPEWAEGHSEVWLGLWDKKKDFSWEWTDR	4.18
Eosinophil-derived neurotoxin (EDN) (Homo sapiens), P10153 (protein) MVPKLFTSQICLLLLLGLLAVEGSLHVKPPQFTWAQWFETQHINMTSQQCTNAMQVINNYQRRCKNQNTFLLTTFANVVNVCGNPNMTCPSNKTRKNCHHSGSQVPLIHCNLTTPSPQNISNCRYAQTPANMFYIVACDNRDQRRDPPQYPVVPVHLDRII	1.13
Epa12 (Candida glabrata) (protein) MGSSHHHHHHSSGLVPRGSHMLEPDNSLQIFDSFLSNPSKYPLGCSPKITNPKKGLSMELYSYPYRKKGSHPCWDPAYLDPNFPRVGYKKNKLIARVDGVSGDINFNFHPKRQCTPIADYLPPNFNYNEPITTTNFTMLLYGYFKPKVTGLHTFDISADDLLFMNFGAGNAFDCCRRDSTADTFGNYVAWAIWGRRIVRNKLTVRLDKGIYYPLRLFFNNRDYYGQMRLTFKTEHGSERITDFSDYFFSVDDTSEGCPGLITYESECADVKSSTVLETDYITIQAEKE	-0.194
Na-CTL-1 (Necator americanus) (protein) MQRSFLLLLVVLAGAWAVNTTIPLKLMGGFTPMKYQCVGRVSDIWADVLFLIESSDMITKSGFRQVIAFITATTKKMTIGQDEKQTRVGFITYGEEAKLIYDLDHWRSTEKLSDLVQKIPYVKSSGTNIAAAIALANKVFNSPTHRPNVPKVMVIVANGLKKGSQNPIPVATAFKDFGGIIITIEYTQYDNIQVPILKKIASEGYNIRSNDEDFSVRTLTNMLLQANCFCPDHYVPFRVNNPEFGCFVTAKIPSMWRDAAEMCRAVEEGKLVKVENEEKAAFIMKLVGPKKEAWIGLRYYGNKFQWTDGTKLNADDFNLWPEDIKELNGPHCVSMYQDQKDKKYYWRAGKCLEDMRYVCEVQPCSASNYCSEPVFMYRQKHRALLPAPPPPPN	-0.557
SefD (Salmonella enterica), Q9L6K6 (protein) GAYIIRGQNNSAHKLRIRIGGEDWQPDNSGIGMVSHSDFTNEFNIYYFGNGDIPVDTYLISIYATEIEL	-0.614
GNAT (Pseudomonas aeruginosa), Q9HV14 (protein) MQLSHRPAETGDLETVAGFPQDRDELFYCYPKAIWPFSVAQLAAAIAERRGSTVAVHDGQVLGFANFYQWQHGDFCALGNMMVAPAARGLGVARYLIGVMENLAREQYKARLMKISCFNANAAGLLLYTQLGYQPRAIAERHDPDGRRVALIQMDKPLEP	-0.269
